Test system: RPMI-8226 leukemia
method.description: NCI-60 one-dose screen, 48 h (100 = growth as untreated, 0 = no growth, -100 = all killed)
measurement.setup: 10 µM unless noted
The panel holds about 83,000 compounds, 20% with a hit somewhere; the sample as a whole holds those more often.
measured.endpoint: growth (%)

| molecule | measured.endpoint | observed.value |
| --- | --- | --- |
| COc1ccc(-c2cc(-c3cc(OC)c(OC)c(OC)c3)c(C#N)c(=O)n2CCCCC(=O)O)cc1 | growth | 84.3 |
| COc1cc2nc3cc([N+](=O)[O-])ccc3c(NCCNCC(C)(C)O)c2cc1OC | growth | -8.62 |
| CN(C)C1CCN(C(=O)c2ccc(NC(=O)Nc3ccc(-c4nc(N5CCOCC5)c5cccn5n4)cc3)cc2)CC1 | growth | -20.8 |
| O=C(N=Nc1c(O)[nH]c2ccccc12)Nc1ccc(Br)cc1 | growth | 66.9 |
| O=[N+]([O-])c1cc(C(F)(F)F)ccc1Sc1ccc(C(F)(F)F)cc1[N+](=O)[O-] | growth | 34.2 |
| C=CCNC(=O)Cc1c(-c2ccc(OC)cc2)oc2c(OC)c3c(c(OC)c12)OCO3 | growth | 97.5 |
| C=C(C)[C@@H]1CC[C@]2(C(=O)O)CC[C@]3(C)[C@H](CC[C@@H]4[C@@]5(C)CCC(N)C(C)(C)[C@@H]5CC[C@]43C)[C@@H]12 (stereo partly drawn) | growth | -33.6 |
| CCOC(=O)c1cc2c(n1Cc1cc(OC)cc(OC)c1Br)-c1nc(NC(C)=O)sc1CCC2 | growth | 60.5 |
| COc1ccc(S(=O)(=O)Nc2cc(Sc3cccc4cccnc34)c(O)c3ccccc23)cc1 | growth | 5.31 |
| O=C1/C(=C/c2cn(-c3ccccc3)nc2-c2ccccc2)SC(=S)N1c1ccc(Cl)cc1 | growth | 78.8 |
| C=C(CNCCO)[C@@H]1CC[C@]2(CO)CC[C@]3(C)[C@H](CC[C@@H]4[C@@]5(C)CCC(NCCc6ccc(O)cc6)C(C)(C)[C@@H]5CC[C@]43C)[C@@H]12 (stereo partly drawn) | growth | -51.3 |
| CCN(CC)CCOc1ccccc1C | growth | 103 |
| Cc1nc(-n2[nH]c(=O)ccc2=O)sc1N=Nc1ccccc1 | growth | 100 |
| Cc1c(O)c(O)cc2c3c(oc12)CC(c1ccc2c(c1)OCO2)CC3=O (stereo not drawn) | growth | 87.5 |
| CCCCC(NC(=O)CN1C(=O)/C(=C/C(C)=C/c2ccccc2)SC1=S)C(=O)O (stereo not drawn) | growth | 115 |
| O=C1/C(=C/c2cn(-c3ccccc3)nc2-c2ccccc2)SC(=S)N1c1ccccc1 | growth | 107 |
| CN(C)CCN1C(=O)c2c(c3c4ccccc4n4c3c3c2c2ccccc2n3C2CC(O)C(O)C4(C)O2)C1=O (stereo not drawn) | growth | 18.5 |
| CN1CCN(Cc2ccc(NC(=O)c3nc4ccc5[nH]ncc5c4c4c3CCCC4)cc2C(F)(F)F)CC1 | growth | -36.2 |
